Values from PubChem BioAssay (EPA / NIEHS)

Target: Estrogen receptor (Homo sapiens) (UniProt P03372)
Sequence (P03372 whole entry, looked up): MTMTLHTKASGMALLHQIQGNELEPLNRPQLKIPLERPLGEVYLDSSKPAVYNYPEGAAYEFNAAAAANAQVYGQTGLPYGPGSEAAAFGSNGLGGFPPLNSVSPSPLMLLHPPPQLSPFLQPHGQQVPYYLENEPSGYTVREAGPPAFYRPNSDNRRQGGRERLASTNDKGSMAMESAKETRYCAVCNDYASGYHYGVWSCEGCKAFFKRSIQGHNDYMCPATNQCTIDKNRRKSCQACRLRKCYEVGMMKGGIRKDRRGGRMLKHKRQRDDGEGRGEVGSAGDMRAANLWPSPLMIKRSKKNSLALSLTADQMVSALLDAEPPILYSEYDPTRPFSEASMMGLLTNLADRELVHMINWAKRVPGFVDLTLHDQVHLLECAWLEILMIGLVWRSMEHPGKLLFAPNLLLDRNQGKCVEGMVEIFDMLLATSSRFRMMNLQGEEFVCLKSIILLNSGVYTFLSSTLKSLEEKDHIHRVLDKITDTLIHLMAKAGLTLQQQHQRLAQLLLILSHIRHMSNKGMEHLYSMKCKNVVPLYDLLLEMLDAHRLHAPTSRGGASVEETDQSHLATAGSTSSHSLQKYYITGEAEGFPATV
Assay: OT_ER_ERaERa_1440: Odyssey Thera (OT) 24-hour HEK293T Protein-Complementation Assay for Estrogen Receptor-alpha/-alpha Homodimer (AID 2283349);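 also: hits raise fluorescence above DMSO for agonists and antagonists alike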
Active and inactive are the calls of the source. The calls were made as follows: active = hit-call score of the fitted dose curve at least 0.9, where 1 is the maximum; inconclusive = response in the unintended direction; inactive = score below 0.9.
Your reply should match one of these outcome classes. Yes for active, No for inactive

Req: Identify the outcome logged in this assay for the compound shown: `Nc1ccc(N=Nc2ccccc2)cc1`
Resp: Yes

Req: Identify the outcome logged in this assay for the compound shown: CCCCCCCCCCCCCN1CC(C)OC(C)C1 (stereo not drawn)
Resp: No

Req: Identify the outcome logged in this assay for the compound shown: `Clc1ccc(C(c2ccc(Cl)cc2)C(Cl)Cl)cc1`
Resp: No

Req: Identify the outcome logged in this assay for the compound shown: `CCC12COCN1COC2`
Resp: No

Req: Identify the outcome logged in this assay for the compound shown: `OCCOCCO`
Resp: No

Req: Identify the outcome logged in this assay for the compound shown: `Cn1cc(-c2ccccc2)c(=O)c(-c2cccc(C(F)(F)F)c2)c1`
Resp: No

Req: Identify the outcome logged in this assay for the compound shown: `O=[N+]([O-])C(Br)(CO)CO`
Resp: No

Req: Identify the outcome logged in this assay for the compound shown: `[Cl-].[Cl-].[Hg+2]`
Resp: No
